Origin of the recorded values: patent US20220226480A1

Assay: Particle size and polydispersity of LNP containing pro-drug (dynamic light scattering)
Format: physicochemical
Settings: LNP; pro-drug concentration 80 %
Classification field: t = PdI at or over 0.03; f = PdI under 0.03.

Compound: CCCCC/C=C\C/C=C\CCCCCCCC(=O)OC(CCCCCCCC)C(CCCCCCCC(=O)OCC(=O)[C@@]1(O)[C@H](C)C[C@H]2[C@@H]3CCC4=CC(=O)C=C[C@]4(C)[C@@]3(F)[C@@H](O)C[C@@]21C)OC(=O)CCCCCCC/C=C\C/C=C\CCCCC (some centres unmarked) [INT-D086]
Label class: f
--
Compound: CCCCCC[C@H](C/C=C\CCCCCCCCOC(=O)c1ccccc1OC(C)=O)OC(=O)CCCCC [INT-D060]
Label class: t
--
Compound: CCCCCCCCC(OC(=O)CCCCC)C(CCCCCCCC(=O)OCC(=O)[C@@]1(O)[C@H](C)C[C@H]2[C@@H]3CCC4=CC(=O)C=C[C@]4(C)[C@@]3(F)[C@@H](O)C[C@@]21C)OC(=O)CCCCC (some centres unmarked) [INT-D085]
Label class: t
--
Compound: CCCCCC[C@H](C/C=C\CCCCCCCCOC(=O)CC/C(C)=C/Cc1c(O)c2c(c(C)c1OC)COC2=O)OC(=O)CCCCC [INT-D062]
Label class: f

Confirm if PdI reported for the compound CCCCC/C=C\C/C=C\C/C=C\C/C=C\CCCC(=O)O[C@@H](C/C=C\CCCCCCCCOC(=O)CCC(=O)OCC(=O)[C@@]1(O)[C@H](C)C[C@H]2[C@@H]3CCC4=CC(=O)C=C[C@]4(C)[C@@]3(F)[C@@H](O)C[C@@]21C)CCCCCC [INT-D051] is 0.03 or above.
f

Can CCCCC/C=C\C/C=C\CCCCCCCC(=O)O[C@@H](C/C=C\CCCCCCCCOC(=O)CC/C(C)=C/Cc1c(O)c2c(c(C)c1OC)COC2=O)CCCCCC [INT-D063] be said to have PdI at or above 0.03?
t

Entry CCCCC/C=C\C/C=C\CCCCCCCC(=O)O[C@@H](C/C=C\CCCCCCCCOC(=O)c1ccccc1OC(C)=O)CCCCCC [INT-D061] : is its PdI no less than 0.03?
t

* * *

Experiment: Particle size and polydispersity of LNP containing pro-drug (dynamic light scattering)
Format: physicochemical
Design: unit not given here
Conditions: LNP formulations containing pro-drugs (10 mol %, FIG. 6A)
Readout label: Size of LNP

Compound: CCCCC/C=C\C/C=C\CCCCCCCC(=O)O[C@@H](C/C=C\CCCCCCCC(=O)OCC(=O)[C@@]1(O)[C@H](C)C[C@H]2[C@@H]3CCC4=CC(=O)C=C[C@]4(C)[C@@]3(F)[C@@H](O)C[C@@]21C)CCCCCC
Size of LNP: 41
--
Compound: CCCCCCCCCCCCCCCCCC(=O)O[C@@H](C/C=C\CCCCCCCCOC(=O)CCC(=O)OCC(=O)[C@@]1(O)[C@H](C)C[C@H]2[C@@H]3CCC4=CC(=O)C=C[C@]4(C)[C@@]3(F)[C@@H](O)C[C@@]21C)CCCCCC
Size of LNP: 60
--
Compound: CCCCC/C=C\C/C=C\CCCCCCCC(=O)O[C@@H](C/C=C\CCCCCCCCOC(=O)CCC(=O)OCC(=O)[C@@]1(O)[C@H](C)C[C@H]2[C@@H]3CCC4=CC(=O)C=C[C@]4(C)[C@@]3(F)[C@@H](O)C[C@@]21C)CCCCCC
Size of LNP: 64
--
Compound: CC/C=C\C/C=C\C/C=C\CCCCCCCC(=O)O[C@@H](C/C=C\CCCCCCCCOC(=O)CCC(=O)OCC(=O)[C@@]1(O)[C@H](C)C[C@H]2[C@@H]3CCC4=CC(=O)C=C[C@]4(C)[C@@]3(F)[C@@H](O)C[C@@]21C)CCCCCC
Size of LNP: 65
--
Compound: CCCCC/C=C\C/C=C\CCCCCCCC(=O)OC(CCCCCCCC)C(CCCCCCCC(=O)OCC(=O)[C@@]1(O)[C@H](C)C[C@H]2[C@@H]3CCC4=CC(=O)C=C[C@]4(C)[C@@]3(F)[C@@H](O)C[C@@]21C)OC(=O)CCCCCCC/C=C\C/C=C\CCCCC (some centres unmarked)
Size of LNP: 38
--
Compound: CCCCCCCCC(OC(=O)CCCCC)C(CCCCCCCC(=O)OCC(=O)[C@@]1(O)[C@H](C)C[C@H]2[C@@H]3CCC4=CC(=O)C=C[C@]4(C)[C@@]3(F)[C@@H](O)C[C@@]21C)OC(=O)CCCCC (some centres unmarked)
Size of LNP: 42
--
Compound: CCCCCC[C@H](C/C=C\CCCCCCCCOC(=O)CCC(=O)OCC(=O)[C@@]1(O)[C@H](C)C[C@H]2[C@@H]3CCC4=CC(=O)C=C[C@]4(C)[C@@]3(F)[C@@H](O)C[C@@]21C)OC(=O)CCCCC
Size of LNP: 70
--
Compound: CCCCCCCCCCCC(=O)O[C@@H](C/C=C\CCCCCCCCOC(=O)CCC(=O)OCC(=O)[C@@]1(O)[C@H](C)C[C@H]2[C@@H]3CCC4=CC(=O)C=C[C@]4(C)[C@@]3(F)[C@@H](O)C[C@@]21C)CCCCCC
Size of LNP: 64
--
Compound: CCCCCC[C@H](C/C=C\CCCCCCCCOC(=O)CCC(=O)OCC(=O)[C@@]1(O)[C@H](C)C[C@H]2[C@@H]3CCC4=CC(=O)C=C[C@]4(C)[C@@]3(F)[C@@H](O)C[C@@]21C)OC(C)=O
Size of LNP: 70
--
Compound: CCCCCCCC/C=C\CCCCCCCC(=O)O[C@@H](C/C=C\CCCCCCCCOC(=O)CCC(=O)OCC(=O)[C@@]1(O)[C@H](C)C[C@H]2[C@@H]3CCC4=CC(=O)C=C[C@]4(C)[C@@]3(F)[C@@H](O)C[C@@]21C)CCCCCC
Size of LNP: 64

In the following, a different compound is considered.
Measured Size of LNP of "CCCCC/C=C\C/C=C\C/C=C\C/C=C\CCCC(=O)O[C@@H](C/C=C\CCCCCCCCOC(=O)CCC(=O)OCC(=O)[C@@]1(O)[C@H](C)C[C@H]2[C@@H]3CCC4=CC(=O)C=C[C@]4(C)[C@@]3(F)[C@@H](O)C[C@@]21C)CCCCCC" : 61
